- Tested On: Adenosine receptor A1 (Homo sapiens, UniProt P30542); further: in other assays of this panel Not Active means under 50% inhibition at 10 µM
- Sequence (P30542 whole entry): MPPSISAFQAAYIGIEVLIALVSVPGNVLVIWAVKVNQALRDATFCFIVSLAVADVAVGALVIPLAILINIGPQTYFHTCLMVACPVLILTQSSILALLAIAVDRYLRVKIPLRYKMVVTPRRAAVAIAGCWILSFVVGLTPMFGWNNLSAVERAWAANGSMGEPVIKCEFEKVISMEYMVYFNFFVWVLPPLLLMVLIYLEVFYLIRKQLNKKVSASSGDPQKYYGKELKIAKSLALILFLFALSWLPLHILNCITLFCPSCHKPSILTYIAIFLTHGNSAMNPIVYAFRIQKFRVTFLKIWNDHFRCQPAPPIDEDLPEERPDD
- Assay type: cell membranes, Membrane
- Assay Setup: cho

>  <Compound>
CC1(C)O[C@@H]2C[C@H]3[C@@H]4C[C@H](F)C5=CC(=O)C=C[C@]5(C)[C@@]4(F)[C@@H](O)C[C@]3(C)[C@]2(C(=O)CO)O1 [FLUOCINOLONE ACETONIDE]

>  <Tested On>
Adenosine receptor A1 (Homo sapiens, UniProt P30542); further: in other assays of this panel Not Active means under 50% inhibition at 10 µM

>  <IC50>
Not Active

$$$$
>  <Compound>
C=C1CC[C@H](O)C/C1=C/C=C1\CCC[C@]2(C)[C@@H]([C@H](C)CCCC(C)C)CC[C@@H]12

>  <Tested On>
Adenosine receptor A1 (Homo sapiens, UniProt P30542); further: in other assays of this panel Not Active means under 50% inhibition at 10 µM

>  <IC50>
Not Active

$$$$
>  <Compound>
C[C@H]1C[C@H]2[C@@H]3CCC4=CC(=O)C=C[C@]4(C)[C@@]3(Cl)[C@@H](O)C[C@]2(C)[C@@]1(O)C(=O)CO

>  <Tested On>
Adenosine receptor A1 (Homo sapiens, UniProt P30542); further: in other assays of this panel Not Active means under 50% inhibition at 10 µM

>  <IC50>
Not Active

$$$$
>  <Compound>
C[C@]12CC[C@@H]3c4ccc(OC(=O)c5ccccc5)cc4CC[C@H]3[C@@H]1CC[C@@H]2O [ESTRADIOL BENZOATE]

>  <Tested On>
Adenosine receptor A1 (Homo sapiens, UniProt P30542); further: in other assays of this panel Not Active means under 50% inhibition at 10 µM

>  <IC50>
Not Active

$$$$
>  <Compound>
O=NN(CCCl)C(=O)NCCCl

>  <Tested On>
Adenosine receptor A1 (Homo sapiens, UniProt P30542); further: in other assays of this panel Not Active means under 50% inhibition at 10 µM

>  <IC50>
Not Active

$$$$
>  <Compound>
COC(=O)C1=C(C)NC(C)=C(C(=O)OCC(C)C)C1c1ccccc1[N+](=O)[O-] (configuration not stated)

>  <Tested On>
Adenosine receptor A1 (Homo sapiens, UniProt P30542); further: in other assays of this panel Not Active means under 50% inhibition at 10 µM

>  <IC50>
Not Active

$$$$
>  <Compound>
Cc1cc(C)nc(NS(=O)(=O)c2ccc(N)cc2)n1

>  <Tested On>
Adenosine receptor A1 (Homo sapiens, UniProt P30542); further: in other assays of this panel Not Active means under 50% inhibition at 10 µM;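 further: radioligand binding assay at the adenosine A1 receptor, with DPCPX serving as the labelled ligand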

>  <IC50>
Not Active

$$$$

###

- Tested On: Muscarinic acetylcholine receptor M5 (Homo sapiens, UniProt P08912); further: in other assays of this panel Not Active means under 50% inhibition at 10 µM
- Sequence (P08912 whole entry): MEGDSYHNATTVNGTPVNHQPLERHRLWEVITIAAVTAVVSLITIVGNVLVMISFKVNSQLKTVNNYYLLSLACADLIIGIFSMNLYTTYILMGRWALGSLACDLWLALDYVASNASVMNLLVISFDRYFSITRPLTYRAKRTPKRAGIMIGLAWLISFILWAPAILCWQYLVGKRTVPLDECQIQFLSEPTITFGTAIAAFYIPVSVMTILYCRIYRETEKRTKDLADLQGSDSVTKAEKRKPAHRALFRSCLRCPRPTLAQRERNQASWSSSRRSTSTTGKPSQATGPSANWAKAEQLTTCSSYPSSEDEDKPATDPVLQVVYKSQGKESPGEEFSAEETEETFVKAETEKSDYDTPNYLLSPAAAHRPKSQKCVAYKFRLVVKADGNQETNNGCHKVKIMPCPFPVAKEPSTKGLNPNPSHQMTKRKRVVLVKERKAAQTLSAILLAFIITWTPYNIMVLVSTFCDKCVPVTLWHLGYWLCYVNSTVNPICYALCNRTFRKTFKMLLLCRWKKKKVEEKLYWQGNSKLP
- Type: cell membranes, CHO-K1, Membrane
- Assay Setup: cho-k1
Property Name: IC50

>  <Compound>
CCCN(CCC)C(=O)C(CCC(=O)O)NC(=O)c1ccccc1 (stereo unspecified) [PROGLUMIDE]

>  <Reported Result>
Not Active

$$$$
>  <Compound>
CC(C)c1nc(CN(C)C(=O)N[C@H](C(=O)N[C@@H](Cc2ccccc2)C[C@H](O)[C@H](Cc2ccccc2)NC(=O)OCc2cncs2)C(C)C)cs1

>  <Reported Result>
Not Active

$$$$
>  <Compound>
CC(C)Cc1ccc(C(C)C(=O)O)cc1 (stereo unspecified)

>  <Reported Result>
Not Active

$$$$
>  <Compound>
C[N+](C)(C)CCO.[Cl-] [CHOLINE CHLORIDE]

>  <Reported Result>
Not Active

$$$$
>  <Compound>
CC1=C(C(=O)O)N2C(=O)[C@@H](NC(=O)[C@H](N)c3ccccc3)[C@H]2SC1 [CEPHALEXIN ANHYDROUS]

>  <Reported Result>
Not Active

$$$$
>  <Compound>
[H]/N=C(/N)N[C@H]1[C@H](O)[C@@H](O)[C@H](O[C@@H]2O[C@@H](C)[C@](O)(C=O)[C@H]2O[C@@H]2O[C@@H](CO)[C@H](O)[C@@H](O)[C@@H]2NC)[C@@H](N/C(N)=N\[H])[C@@H]1O

>  <Reported Result>
Not Active

$$$$

Values from ChEMBL document CHEMBL1909046
